Data origin, for the record: PubChem BioAssay (NCI)

- Tested on: MALME-3M melanoma
- method_notes: NCI tumour cell line growth inhibition, 48 h
Rule: TGI of 7 µM or more gives 1; anything lower gives -1.

S=c1[nH]c2ccc(Br)cc2c(=S)n1-c1ccccc1 = 1
ClCc1c(Cl)c(Cl)c(Cl)c(CCl)c1Cl = -1
CC(=O)Nc1ccc2c3c(cc(O)c2c1)N(C(=O)CCCCC(=O)Nc1ccc2c4c(cc(O)c2c1)N(C(=O)OC(C)(C)C)CC4CCl)CC3CCl (stereo unspecified) = -1
C=C1C(=O)O[C@H]2[C@H]1CC/C(COC(=O)N1CCC[C@H]1C(=O)Nc1ccc(OC)c(C(N)=O)c1O)=C\CC[C@@]1(C)O[C@@H]21 = -1
Cc1cccc(NC(=S)N=Nc2c(O)[nH]c3ccccc23)c1 = 1
O=C(CSC(=S)N1CCOCC1)Nc1nc2c(s1)CCCC2 = 1
Cc1c(NC(=S)Nc2ccc(Cl)cc2)c(=O)n(-c2ccccc2)n1C = 1
CN(C)C(=S)N=Nc1c(O)[nH]c2ccccc12 = 1

Problem: Is it the case that "CCCCN(Cc1ccc(F)cc1)c1ccc(CO)c(Cl)c1" has TGI reaching or exceeding 7 µM?
Result: 1

Problem: Is it the case that CC(=O)O[C@@H]1CC2C(C)(C)CCCC2(C)C2=C1C(=O)C(C(C)C)=CC2=O (stereo partly specified) has TGI reaching or exceeding 7 µM?
Result: -1

Problem: Is it the case that "CC(=O)[O-].CC(=O)[O-].[NH2-].[Pt+2].c1ccc2cnccc2c1" has TGI reaching or exceeding 7 µM?
Result: 1

Problem: Is it the case that CC(C)C1OC(=O)/C=C/C=C/C=C/C=C/C=C/CC(O)CC(O)CC(O)CC(O)CC(O)CC(O)CC(O)CC(O)/C=C/C1C (stereo unspecified) has TGI reaching or exceeding 7 µM?
Result: 1

Problem: Is it the case that CCOC(=O)CCC(NC(=O)c1ccc(N2CCN(c3c(C)nc(N)nc3N)CC2)cc1)C(=O)OCC (stereo unspecified) has TGI reaching or exceeding 7 µM?
Result: 1

Problem: Is it the case that CC(=O)NC1=C(C)C(=O)c2c(nc3n2CCC3O)C1=N (stereo unspecified) has TGI reaching or exceeding 7 µM?
Result: 1

Problem: Is it the case that "Cn1ccnc1C(=O)/C=C/c1ccc(CC(=O)Nc2ccccc2)cc1" has TGI reaching or exceeding 7 µM?
Result: 1
